Target: recombinant poly(ADP-ribose) polymerase 1 (PARP1) (Homo sapiens (Human), UniProt P09874)
Sequence (P09874 whole entry): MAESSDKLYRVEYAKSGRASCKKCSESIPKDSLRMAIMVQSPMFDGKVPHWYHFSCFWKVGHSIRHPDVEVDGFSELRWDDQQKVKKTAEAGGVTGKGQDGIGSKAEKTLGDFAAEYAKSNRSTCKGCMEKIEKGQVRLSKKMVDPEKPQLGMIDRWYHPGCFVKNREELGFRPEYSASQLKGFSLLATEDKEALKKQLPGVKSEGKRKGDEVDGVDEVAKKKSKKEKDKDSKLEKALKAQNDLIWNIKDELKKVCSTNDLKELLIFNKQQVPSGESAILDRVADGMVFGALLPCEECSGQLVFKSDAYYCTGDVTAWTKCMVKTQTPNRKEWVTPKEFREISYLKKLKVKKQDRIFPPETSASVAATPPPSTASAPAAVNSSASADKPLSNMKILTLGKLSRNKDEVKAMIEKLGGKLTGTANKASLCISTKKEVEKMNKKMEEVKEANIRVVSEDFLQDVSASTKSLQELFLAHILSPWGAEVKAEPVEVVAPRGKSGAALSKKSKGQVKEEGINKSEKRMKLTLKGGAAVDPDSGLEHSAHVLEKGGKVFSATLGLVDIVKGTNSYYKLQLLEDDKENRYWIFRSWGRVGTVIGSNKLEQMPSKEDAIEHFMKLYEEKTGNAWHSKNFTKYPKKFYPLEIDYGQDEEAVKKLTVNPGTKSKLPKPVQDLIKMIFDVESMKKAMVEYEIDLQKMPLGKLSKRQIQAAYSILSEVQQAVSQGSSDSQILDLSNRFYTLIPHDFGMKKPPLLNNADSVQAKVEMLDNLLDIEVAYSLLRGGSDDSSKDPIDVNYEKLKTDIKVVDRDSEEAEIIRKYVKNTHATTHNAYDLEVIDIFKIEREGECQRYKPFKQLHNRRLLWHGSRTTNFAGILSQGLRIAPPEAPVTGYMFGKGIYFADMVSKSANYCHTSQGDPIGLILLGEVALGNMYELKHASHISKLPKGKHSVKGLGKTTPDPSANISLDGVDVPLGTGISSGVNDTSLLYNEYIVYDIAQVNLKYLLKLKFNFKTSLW
pIC50: −log10 of the molar value.
Values of pIC50 greater than or equal to 9 map to 1.0; values below map to 0.0.

INSERT INTO measurements (molecule, label_class) VALUES
  ('CNC(=O)c1ccc(N2CCN(Cc3ccc4c([nH]c(=O)c5cncn54)c3F)CC2)c(F)n1 [Example 55]', 1.0);

Prompt: Is it the case that CNC(=O)c1ccc(N2CCN(Cc3ccc4c(c3)[nH]c(=O)c3ccoc34)CC2)cn1 [Example 118] has pIC50 reaching or exceeding 9?
Response: 1.0

Prompt: Again, but for CNC(=O)c1ccc(N2CCN(Cc3ccc4c([nH]c(=O)c5c(F)cnn54)c3F)CC2)c(F)n1 [Example 122]
Response: 1.0

Prompt: Again, but for CNC(=O)c1ccc(N2CCN(Cc3ccc4c([nH]c(=O)c5c(Cl)c(C)nn54)c3F)CC2)c(F)n1 [Example 199]
Response: 1.0

Prompt: Again, but for CNC(=O)c1ccc(N2CCN(Cc3ccc4c(c3)[nH]c(=O)c3occc34)CC2)c(F)n1 [Example 112]
Response: 1.0

Prompt: Again, but for CNC(=O)c1ccc2c(n1)OC[C@H]1CN(Cc3ccc4c([nH]c(=O)c5c(C)cnn54)c3F)CCN21 [Example 167]
Response: 1.0

Prompt: Again, but for CNC(=O)c1ccc(N2CCN(Cc3ccc4c([nH]c(=O)c5occc54)c3C)CC2)c(F)n1 [Example 103]
Response: 0.0
